// reported t½ for each item listed
Target: T1, Human C5 (human, UniProt P01031 19-1676)
T1 construct: The natural protein has a beta and an alpha chain; also called complement factor 5; complement component 5
Experiment: SPR, mAb captured by anti-hFc, 37C
READOUT TYPE: t½ (min)

H4H12166P6 (antibody, human IgG4, V domains shown, human IgG4 Fc with S108P hinge mutation) VH: QVQLQESGPGLVKPSETLSLTCTVSGDSVSSSYWTWIRQPPGKGLEWIGYIYYSGSSNYNPSLKSRATISVDTSKNQFSLKLSSVTAADTAVYYCAREGNVDHTMIFDYWGQGTLVTVSS VL: AIQMTQSPSSLSASVGDRVTITCRASQGIRNDLGWYQQKPGKAPKLLIYAASSLQSGVPSRFAGRGSGTDFTLTISSLQPEDFATYYCLQDFNYPWTFGQGTKVEIK = 24
H4H12166P7 (antibody, human IgG4, V domains shown, human IgG4 Fc with S108P hinge mutation) VH: QVQLQESGPGLVKPSETLSLTCTVSGDSVSSSYWTWIRQPPGKGLEWIGYIYYSGSSNYNPSLKSRATISVDTSKNQFSLKLSSVTAADTAVYYCAREHNVDTTMIFDYWGQGTLVTVSS VL: AIQMTQSPSSLSASVGDRVTITCRASQGIRNDLGWYQQKPGKAPKLLIYAASSLQSGVPSRFAGRGSGTDFTLTISSLQPEDFATYYCLQDFNYPWHFGQGTKVEIK = 4
